Tested on: TNFα
measurement.protocol: Human whole blood LPS TNFα assay
Format: cell-based
cond: 20 h pretreatment, LPS 5 h, read-out: IRAK4 human whole blood LPS TNFa inhibition: Average external-IC50

- compound: "O=C1CCC(n2c3ccc(CCCOCCOCCNCC4CCC(n5cc(NC(=O)c6coc(-c7ccnc(NCC8CC8)c7)n6)c(C(F)F)n5)CC4)cc3c3cccnc32)C(=O)N1 (centres unmarked)"
  IC50: "> 1 µM"
- compound: "CN(CCCOCCCc1cccc2c1n(C)c(=O)n2C1CCC(=O)NC1=O)C[C@H]1CC[C@H](n2cc(NC(=O)c3coc(-c4ccnc(NCC5CC5)c4)n3)c(C(F)F)n2)CC1 (mixture of isomers)"
  IC50: "0.1 to 0.5 µM"
- compound: "CN(CC1CCN(CCC#Cc2ccc3c(c2)n(C)c(=O)n3C2CCC(=O)NC2=O)CC1)C(=O)[C@H]1CC[C@H](n2cc(NC(=O)c3coc(-c4ccnc(NCC5CC5)c4)n3)c(C(F)F)n2)CC1 (some centres unmarked)"
  IC50: "0.1 to 0.5 µM"
- compound: "CN(C[C@@H]1CN(CCCc2ccc3c(c2)n(C)c(=O)n3C2CCC(=O)NC2=O)CCO1)C(=O)[C@H]1CC[C@H](n2cc(NC(=O)c3coc(-c4ccnc(NCC5CC5)c4)n3)c(C(F)F)n2)CC1 (some centres unmarked)"
  IC50: "0.5 to 1 µM"
- compound: "Cn1c(=O)n(C2CCC(=O)NC2=O)c2ccc(CCCOCCNC[C@H]3CC[C@H](n4cc(NC(=O)c5coc(-c6ccnc(NCC(F)(F)F)c6)n5)c(C(N)=O)n4)CC3)cc21 (some centres unmarked)"
  IC50: "> 1 µM"
- compound: "CN(CCCOCCCc1cccc2c1n(C)c(=O)n2C1CCC(=O)NC1=O)C[C@H]1CC[C@H](n2cc(NC(=O)c3cccc(C(F)(F)F)n3)c(C(F)F)n2)CC1 (some centres unmarked)"
  IC50: "> 1 µM"
- compound: "Cn1c(=O)n(C2CCC(=O)NC2=O)c2ccc(CCOCCN3CCO[C@@H](CNC[C@H]4CC[C@H](n5cc(NC(=O)c6cnn7ccc(N8CCNCC8)nc67)c(C(F)F)n5)CC4)C3)cc21 (some centres unmarked)"
  IC50: "0.5 to 1 µM"
- compound: "CN(C[C@H]1CC[C@H](n2cc(NC(=O)c3coc(-c4ccnc(NCC5CC5)c4)n3)c(C(F)F)n2)CC1)C1CCN(Cc2cccc3c2n(C)c(=O)n3C2CCC(=O)NC2=O)CC1 (some centres unmarked)"
  IC50: "> 1 µM"

* * *

experimental.target: IRAK4 (Homo sapiens (Human))
Sequence (Q9NWZ3 whole entry): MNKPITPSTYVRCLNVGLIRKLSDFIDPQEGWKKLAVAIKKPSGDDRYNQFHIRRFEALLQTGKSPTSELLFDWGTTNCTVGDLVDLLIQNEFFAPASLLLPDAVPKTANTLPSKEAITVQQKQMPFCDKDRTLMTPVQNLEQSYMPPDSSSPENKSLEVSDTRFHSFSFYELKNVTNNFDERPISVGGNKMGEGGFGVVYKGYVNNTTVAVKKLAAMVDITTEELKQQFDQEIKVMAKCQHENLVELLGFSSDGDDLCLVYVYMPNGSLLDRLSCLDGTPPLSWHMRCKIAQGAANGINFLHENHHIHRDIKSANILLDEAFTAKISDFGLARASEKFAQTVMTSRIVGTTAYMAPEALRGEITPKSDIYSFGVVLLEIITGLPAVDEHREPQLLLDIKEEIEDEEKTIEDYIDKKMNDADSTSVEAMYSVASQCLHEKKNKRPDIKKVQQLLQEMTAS
measurement.protocol: IRAK4 MSD degradation in OCI-LY10
Type: cell-based
cond: OCI-LY10, 24 hrs, MSD; read-out: IRAK4 MSD degradation in OCI-LY10 at 24 hrs: Average external-Abs DC50

- compound: "O=C1CCC(N2C(=O)c3cccc(NCCCOC4CCN(C[C@H]5CC[C@H](n6cc(NC(=O)c7cnn8ccc(N9CC%10(COC%10)C9)nc78)c(C(F)F)n6)CC5)CC4)c3C2=O)C(=O)N1 (stereo partly drawn)"
  DC50: "10 to 100 nM"
- compound: "CN(CCOCCOCCOC12CC3CC(CC(C3)C1)C2)C[C@H]1CC[C@H](n2cc(NC(=O)c3cnn4ccc(N5CCNCC5)nc34)c(C(F)F)n2)CC1"
  DC50: "> 1000 nM"
- compound: "CC[C@H]1C(COc2ncc(C#CC3CCC(CN(C)CCCOCCCc4cccc5c4n(C)c(=O)n5C4CCC(=O)NC4=O)CC3)c3cc(C(N)=O)c(OC)cc23)NC(=O)[C@H]1F (stereo partly drawn)"
  DC50: "10 to 100 nM"
- compound: "O=C1CCC(N2C(=O)c3cccc(NCCCOC4CCN(C[C@H]5CC[C@H](n6cc(NC(=O)c7cnn8ccc(N9C%10COCC9C%10)nc78)c(C(F)F)n6)CC5)CC4)c3C2=O)C(=O)N1 (stereo partly drawn)"
  DC50: "10 to 100 nM"
- compound: "Cn1c(=O)n(C2CCC(=O)NC2=O)c2cccc(CCN3CC4(CCN(C[C@H]5CC[C@H](n6cc(NC(=O)c7cnn8ccc(N9CCOCC9)nc78)c(C(F)F)n6)CC5)CC4)C3)c21 (stereo partly drawn)"
  DC50: "< 10 nM"
- compound: "CC(C)[C@@H](CS(=O)(=O)C(C)C)N1C(=O)[C@@](C)(CC(=O)N2CCC(CCN(C)C[C@H]3CC[C@H](n4cc(NC(=O)c5coc(-c6ccnc(NCC7CC7)c6)n5)c(C(F)F)n4)CC3)CC2)C[C@H](c2cccc(Cl)c2)[C@H]1c1ccc(Cl)cc1"
  DC50: "> 1000 nM"
